# Test system: HEK-293T
# experimental protocol: Incucyte cell viability with HEK293T; also: unitless GR value; below 1 slowed growth and below 0 cell loss
# Format: toxicity, cell-based
# assay conditions: human, 12 h, 10 µM, compound concentration 10 uM, replicate number 1
Recorded measurements of Growth Rate, one per entry
Lab note: jot down the number only; don't add units.

# molecule, system tested, value type, value
data = [
    ("Cc1cc2ncnn2cc1Nc1ncc2c(n1)n(C1CCOCC1)c(=O)n2C", "HEK-293T", "Growth Rate", 0.78),
]

Please give measured Growth Rate of the following entry: CCCOc1cnc(CN/C=C2\C(=O)NC(=O)c3ccc(I)cc32)cc1O
-0.75

Please give measured Growth Rate of the following entry: Cn1nccc1-c1ccc(Sc2cccc(C3(C(N)=O)CCOCC3)c2)cc1
0.37

Please give measured Growth Rate of the following entry: O=C(NNC(=O)c1ccc(CNS(=O)(=O)c2ccc(F)c(Cl)c2)cc1)c1ccccc1
0.48

Please give measured Growth Rate of the following entry: CC(C)C(=O)N[C@@H]1CCN(C(=O)Nc2nc3c(s2)-c2nc(-c4ccccc4Cl)ncc2CC3)C1
0.16

Please give measured Growth Rate of the following entry: CN1C(=O)c2ccccc2N(C)c2nc(Nc3cnn(C4CCNCC4)c3)ncc21
-0.25

Please give measured Growth Rate of the following entry: C=CC(=O)Nc1ccc2[nH]c(=O)n(C3CCN(Cc4ccc(-c5ccc6c(c5)NC(=O)CO6)cc4)CC3)c2c1
0.24

Please give measured Growth Rate of the following entry: Cc1cc(C(C#N)c2ccc(Cl)cc2)c(Cl)cc1NC(=O)c1cc(I)cc(I)c1O (centres undefined)
0.27

Please give measured Growth Rate of the following entry: CCn1ccc(Nc2ncc3c(n2)-c2c(nn(C)c2-c2ccc(-c4cnn(C)c4)cc2Cl)CC3)n1
-0.39

====

# Tested on: Fibroblast
# experimental protocol: Incucyte cell viability with human fibroblast; also: unitless GR value; below 1 slowed growth and below 0 cell loss
# Format: toxicity, cell-based
# assay conditions: 18 h, 10 µM, compound concentration 10 uM, replicate number 1
Threshold rule: Growth Rate greater than or equal to 0.6 is true (1); below that, false (0).

# compound, label
data = [
    ("CN1CCN(c2ccc(-n3cc(-c4ccncc4OCC4CCNCC4)cn3)cc2)CC1", "true (1)"),
]

Is Growth Rate at least 0.6? Consider NS(=O)(=O)c1cncc(-c2nc(NCc3ccccn3)c3c(-c4ccccc4)cccc3n2)c1 [BMS-919373]
false (0)

Is Growth Rate at least 0.6? Consider CCCN1C(=O)c2ccc(Cl)cc2Nc2ncccc21
true (1)

Is Growth Rate at least 0.6? Consider Cc1nc(-c2ccc(C(F)(F)F)cc2)sc1C(=O)NCc1ccc(OC(C)(C)C(=O)O)cc1 [GW590735]
true (1)

Is Growth Rate at least 0.6? Consider Cc1nnc2n1-c1sc3c(c1C(c1ccccc1Cl)=NC2)CC(C(=O)N1CCOCC1)C3 (stereo unspecified) [BEPAFANT]
true (1)

====

# Test system: HEK-293T
# experimental protocol: Incucyte cell viability with HEK293T; also: unitless GR value; below 1 slowed growth and below 0 cell loss
# Type: toxicity, cell-based
# assay conditions: human, 6 h, 10 µM, compound concentration 10 uM, replicate number 2
Recorded measurements of Growth Rate, one per entry
Lab note: jot down the number only; don't add units.

Past entries and their recorded results:
# smiles structure, Growth Rate
rows = [
    ("Cc1cc(-c2cc3ncccc3c(OC[C@H]3CCCNC3)n2)ccc1N(C)C.O=C(O)C(F)(F)F", -0.53),
    ("Cl.O=C(O)CCCN1CCC[C@H]1COc1ccc(Oc2ccc(Cl)cc2)cc1", -0.09),
    ("CCc1c(-c2ccc3[nH]ncc3c2)cnc(N)c1-c1ccc(O)cc1", 0.91),
    ("CNS(=O)(=O)c1ccc(N(C)C)c(Nc2ncnc3cc(OC)c(OC)cc23)c1", 0.92),
    ("COc1ccc(CCCN2CCC(COC(c3ccccc3)c3ccccc3)CC2)cc1.Cl", -0.09),
]

Please give measured Growth Rate of the following entry: CC(C)C(=O)N[C@@H]1CCN(C(=O)Nc2nc3c(s2)-c2nc(-c4ccccc4Cl)ncc2CC3)C1
-0.05

====

# Tested on: Fibroblast
# experimental protocol: Incucyte cell viability with human fibroblast; also: unitless GR value; below 1 slowed growth and below 0 cell loss
# Format: toxicity, cell-based
# assay conditions: 6 h, 10 µM, compound concentration 10 uM, replicate number 2
value type: Growth Rate
Lab note: jot down the number only; don't add units.

# compound, value type, value
data = [
    ("CCS(=O)(=O)Nc1cccc(Oc2cc(F)cc(Nc3ccc(I)cc3F)c2NS(=O)(=O)C2CC2)c1", "Growth Rate", -0.17),
    ("Cc1ccc(S(=O)(=O)O)cc1.Cn1cc(Nc2nccc(N3CC4CCC(C3)N4C(=O)[C@@H]3CC3(F)F)n2)cn1", "Growth Rate", 0.12),
    ("CSc1ccc(C(=O)/C=C/c2cc(C)c(OC(C)(C)C(=O)O)c(C)c2)cc1 [ELAFIBRANOR]", "Growth Rate", 0.74),
    ("COc1ccc(CC(=O)NC(N/C(=N/C#N)Nc2cccc3ncccc23)C(C)(C)C)cc1OC (stereo unspecified)", "Growth Rate", -1),
    ("COc1cc2nc(C)nc(N[C@H](C)c3cc(N)cc(C(F)(F)F)c3)c2cc1O[C@H]1CCOC1", "Growth Rate", -0.84),
]

// next entry
Please give measured Growth Rate of the following entry: CCc1nc(-c2cccc(C)c2)c(-c2ccnc(NC(=O)c3ccccc3)c2)s1 [TAK-715]
0.83

====

# Test system: U2OS
# experimental protocol: Incucyte cell viability with U2OS; also: unitless GR value; below 1 slowed growth and below 0 cell loss
# Type: toxicity, cell-based
# assay conditions: human, 6 h, 10 µM, compound concentration 10 uM, replicate number 1
value type: Growth Rate
Lab note: jot down the number only; don't add units.

Past entries and their recorded results:
# compound, Growth Rate
measured = [
    ("CC(=O)Oc1ccc2c(c1)[C@@]1(C)CCC[C@](C)(C(=O)OC(=O)[C@@]3(C)CCC[C@]4(C)c5cc(OC(C)=O)ccc5CC[C@@H]34)[C@@H]1CC2 [ACETYL PODOCARPIC ACID ANHYDRIDE]", 0.6),
    ("Cc1nc2ccccc2c(-c2ccc3c4c(ccnc24)CCO3)c1[C@H](OC(C)(C)C)C(=O)O [BI-224436]", 0.57),
    ("CCN1C(=O)/C(=C(\\NC2CCN(C)CC2)c2ccc3c(c2)OCO3)c2cc(C(C)=O)ccc21", 0.59),
]

Output reported Growth Rate of the compound CO[C@@H](C)CN1CC[C@]2(C)c3cc(O)ccc3C[C@H]1C2(C)C.Cl on U2OS.
0.69

====

# Test system: HEK-293T
# experimental protocol: Incucyte cell viability with HEK293T; also: unitless GR value; below 1 slowed growth and below 0 cell loss
# Type: toxicity, cell-based
# assay conditions: human, 12 h, 10 µM, compound concentration 10 uM, replicate number 2
Recorded measurements of Growth Rate, one per entry
Lab note: jot down the number only; don't add units.

Past entries and their recorded results:
# compound, Growth Rate
rows = [
    ("Cl.N/C(=N\\C(=O)c1nc(Cl)c(N)nc1N)NCc1ccccc1 [BENZAMIL HYDROCHLORIDE]", 1),
    ("O=C(O)C[C@H]1CCn2c1c(Sc1ccc(Cl)cc1)c1ccc(F)cc12", 0.99),
    ("Cn1cc(-c2ccc(N(C(=O)NCc3ccccc3)[C@H]3CC[C@H](Nc4ccc(C#N)cn4)CC3)cc2)ccc1=O", -0.56),
]

Please give measured Growth Rate of the following entry: CN[C@@H](C)C(=O)N[C@H](C(=O)N1CCC[C@H]1C(=O)N[C@H]1c2ccccc2C[C@H]1OCC#CC#CCO[C@@H]1Cc2ccccc2[C@@H]1NC(=O)[C@@H]1CCCN1C(=O)[C@@H](NC(=O)[C@H](C)NC)C1CCCCC1)C1CCCCC1
-0.22

====

# Test system: U2OS
# experimental protocol: Incucyte cell viability with U2OS; also: unitless GR value; below 1 slowed growth and below 0 cell loss
# Format: toxicity, cell-based
# assay conditions: human, 24 h, 10 µM, compound concentration 10 uM, replicate number 1
value type: Growth Rate
Lab note: jot down the number only; don't add units.

Past entries and their recorded results:
# smiles structure, system tested, Growth Rate
data = [
    ("CNC(=O)c1cccc(-c2ccc3c(N4CCOC[C@@H]4C)nc(N4CCOC[C@@H]4C)nc3n2)c1", "U2OS", 0.56),
    ("C=C(C)[C@H]1CN[C@H](C(=O)O)[C@H]1CC(=O)O", "U2OS", 0.98),
    ("CC(=O)O.NCCCc1c(C(=O)O)[nH]c2ccc(C(=O)Nc3ccccc3)cc12", "U2OS", 0.93),
    ("NC(=O)OC[C@H](NC(=O)Cn1nc(-c2ccc(Cl)cc2)n(C[C@H](O)C(F)(F)F)c1=O)c1cccc(C(F)(F)F)c1", "U2OS", 0.9),
    ("c1ccc2c(c1)SCc1c-2[nH]c2ccccc12", "U2OS", -0.5),
]

Please give measured Growth Rate of the following entry: O=C(CNCc1cc2ccccc2[nH]1)N[C@H]1CC[C@@H](c2nc3ccccc3[nH]2)CC1
0.8

Please give measured Growth Rate of the following entry: NC(=O)c1ccc2[nH]c(-c3ccc(Oc4ccc(Cl)cc4)cc3)nc2c1
0.75

Please give measured Growth Rate of the following entry: Oc1cccc(Nc2ccnc3[nH]c4ccccc4c23)c1
0.73

Please give measured Growth Rate of the following entry: CN(C)C(=O)Cn1cc(-c2ccc(-c3cncc4ccccc34)cc2)cn1
0.9

Data provenance: ChEMBL document CHEMBL5303304
